- measured_on: S. aureus ClpP (Sa-ClpP) (Staphylococcus aureus, UniProt Q2G036)
- Construct: made in house; host or cells: E. coli BL21 (DE3)
- Sequence (Q2G036 whole entry): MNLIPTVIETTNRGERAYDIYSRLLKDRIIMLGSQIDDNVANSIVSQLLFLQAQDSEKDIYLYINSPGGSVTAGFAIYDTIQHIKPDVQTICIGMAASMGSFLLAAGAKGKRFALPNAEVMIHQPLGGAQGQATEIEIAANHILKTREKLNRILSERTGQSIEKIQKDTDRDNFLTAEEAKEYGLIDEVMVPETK
- assay_comment: ClpP activation, casein-BODIPY digestion assay (first described method)
- Type: biochemical
- study_conditions: first described ClpP activation assay (**); 10 μM saClpP, 25 μg/ml BODIPY FL casein, 37° C.; read-out: ClpP Activation EC50
property_measured: EC50 (µM)
Numbers only, in µM.

molecule | unit_name | EC50
C[C@@H]1C[C@H]2C(=O)OC[C@H](NC(=O)[C@H](Cc3ccccc3)NC(=O)Nc3ccccc3Cl)C(=O)N3CCC[C@H]3C(=O)N3CCCC[C@H]3C(=O)N[C@@H](C)C(=O)N2C1 [Compound 7] | µM | 34.6
C[C@@H]1C[C@H]2C(=O)OC[C@H](NC(=O)[C@H](Cc3ccccc3)NC(=O)Nc3ccc4ccn(C)c4c3)C(=O)N3CCC[C@H]3C(=O)N3CCCC[C@H]3C(=O)N[C@@H](C)C(=O)N2C1 [Compound 12] | µM | 3.2

Count: 2. Required value per item: EC50.
1. C[C@@H]1C[C@H]2C(=O)OC[C@H](NC(=O)[C@H](Cc3ccccc3)NC(=O)Nc3ccc(Cl)cc3)C(=O)N3CCC[C@H]3C(=O)N3CCCC[C@H]3C(=O)N[C@@H](C)C(=O)N2C1 [Compound 3]
2. Cc1ccc(NC(=O)N[C@@H](Cc2ccccc2)C(=O)N[C@H]2COC(=O)[C@@H]3C[C@@H](C)CN3C(=O)[C@H](C)NC(=O)[C@@H]3CCCCN3C(=O)[C@@H]3CCCN3C2=O)cc1 [Compound 23]

Response:
3.3
2.6

Query: Check the records and state EC50 for Cc1ccc(NC(=O)N[C@@H](Cc2cc(F)cc(F)c2)C(=O)N[C@H]2COC(=O)[C@@H]3C[C@@H](C)CN3C(=O)[C@H](C)NC(=O)[C@@H]3CCCCN3C(=O)[C@@H]3CCCN3C2=O)cc1 [Compound 24]
Response: 3.3

###

- measured_on: S. aureus ClpP (Sa-ClpP) (Staphylococcus aureus)
- Construct: made in house; host or cells: E. coli BL21 (DE3)
- assay_comment: ClpP activation, casein-BODIPY digestion assay (first described method)
- Type: biochemical
- study_conditions: first described ClpP activation assay (**); 10 μM saClpP, 25 μg/ml BODIPY FL casein, 37° C.; read-out: ClpP Activation EC50
property_measured: EC50
Please state the number and follow it with the unit.

Worked examples, 3 molecules total:
item_smiles | endpoint_value
C[C@H]1C[C@H]2C(=O)O[C@@H](C)[C@H](NC(=O)[C@H](Cc3cc(F)cc(F)c3)NC(=O)Nc3ccc(C(F)(F)F)cc3)C(=O)N3CCC[C@H]3C(=O)N3CCCC[C@H]3C(=O)N[C@@H](C)C(=O)N2C1 | 3200 nM
COc1ccc(NC(=O)N[C@@H](Cc2ccccc2)C(=O)N[C@H]2COC(=O)[C@@H]3C[C@@H](C)CN3C(=O)[C@H](C)NC(=O)[C@@H]3CCCCN3C(=O)[C@@H]3CCCN3C2=O)cc1 | 2000 nM
Cc1ccc(NC(=O)N[C@@H](Cc2cc(F)cc(F)c2)C(=O)N[C@@H]2C(=O)N3CCC[C@H]3C(=O)N3CCCC[C@H]3C(=O)N[C@@H](C)C(=O)N3CCC[C@H]3C(=O)O[C@H]2C)cc1 | 4600 nM

Count: 2. Required value per item: EC50.
1. C[C@@H]1C[C@H]2C(=O)OC[C@H](NC(=O)[C@H](Cc3ccccc3)NC(=O)Nc3ccc4c(c3)CCN4C)C(=O)N3CCC[C@H]3C(=O)N3CCCC[C@H]3C(=O)N[C@@H](C)C(=O)N2C1
2. C[C@@H]1C[C@H]2C(=O)OC[C@H](NC(=O)[C@H](Cc3ccccc3)NC(=O)Nc3cccc(Cl)c3)C(=O)N3CCC[C@H]3C(=O)N3CCCC[C@H]3C(=O)N[C@@H](C)C(=O)N2C1

Response:
2300 nM
1000 nM

###

What IC50 was measured for each of the following?
- measured_on: Sa-ClpP (Staphylococcus aureus)
- Construct: made in house; host or cells: E. coli BL21 (DE3)
- assay_comment: ADEP displacement fluorescence polarization assay
- Format: binding, S. aureus
*1 amine or outer side, *2 acyl side, *3 side chain or, on linkers, in order; H or OH if unused. Where a SMILES comes first, the peptide text is derived from it. Bridges are numbered along the chain shown (N, C = ends). [ ]: non-standard residue; d: D form. The star is where a group is joined. ξ: configuration not given here. Phe(3,5-F2) = N[C@@H](Cc1cc(F)cc(F)c1)C(=O)O; NH(4-OCF3-phenyl) = FC(F)(F)Oc1ccc(N*)cc1; ξPro(4S-Me) = C[C@@H]1CNC(C(=O)O)C1; aThr = C[C@H](O)[C@H](N)C(=O)O; X1 = O=C(C1COCCN1[*:1])[*:2]; CO = O=C([*:1])[*:2]; ξP = O=C(O)C1CCCN1
Answers are plain numbers, in µM.

Worked examples, 2 molecules total:
molecule | IC50 (µM)
C[C@@H]1CC2C(=O)O[C@@H](C)[C@H](NC(=O)[C@H](Cc3cc(F)cc(F)c3)NC(=O)Nc3ccc(OC(F)(F)F)cc3)C(=O)N3CCCC3C(=O)N3CCCCC3C(=O)N[C@@H](C)C(=O)N2C1 (stereo partly shown) | 12.7
C[C@H]1CC2C(=O)O[C@@H](C)[C@H](NC(=O)[C@H](Cc3cc(F)cc(F)c3)NC(=O)Nc3ccc(OC(F)(F)F)cc3)C(=O)N3C[C@H](O)CC3C(=O)N(C)[C@@H](C)C(=O)N[C@@H](C)C(=O)N2C1 (stereo partly shown) | 7

Count: 8. Required value per item: IC50.
1. C[C@H]1CC2C(=O)O[C@@H](C)[C@H](NC(=O)[C@H](Cc3cc(F)cc(F)c3)NC(=O)Nc3ccc(OC(F)(F)F)cc3)C(=O)N3CCCC3C(=O)N(C)[C@@H](C)C(=O)N[C@@H](C)C(=O)N2C1 (stereo partly shown)
2. C[C@H]1CC2C(=O)O[C@@H](C)[C@H](NC(=O)[C@H](Cc3cc(F)cc(F)c3)NC(=O)Nc3ccc(OC(F)(F)F)cc3)C(=O)N3CCCC3C(=O)N3CCOCC3C(=O)N[C@@H](C)C(=O)N2C1 (stereo partly drawn) [Compound 34] ({NH(4-OCF3-phenyl)-CO}-[Phe(3,5-F2)][aThr][ξP][X1]A[ξPro(4S-Me)]; ester 2-C)
3. CCc1ccc(NC(=O)N[C@@H](Cc2cc(F)cc(F)c2)C(=O)N[C@@H]2C(=O)N3CCCC3C(=O)N(C)[C@@H](C)C(=O)N[C@@H](C)C(=O)N3CCCC3C(=O)O[C@H]2C)cc1 (stereo partly shown)
4. C[C@H]1CC2C(=O)OC[C@H](NC(=O)[C@H](Cc3cc(F)cc(F)c3)NC(=O)Nc3ccc4c(c3)OCO4)C(=O)N3CCCC3C(=O)N3CCCCC3C(=O)N[C@@H](C)C(=O)N2C1 (stereo partly shown)
5. C[C@@H]1NC(=O)[C@@H]2CCCCN2C(=O)[C@@H]2CCCN2C(=O)[C@@H](NC(=O)[C@H](Cc2cc(F)cc(F)c2)NC(=O)Nc2ccc3c(c2)OCO3)[C@H](C)OC(=O)[C@@H]2CCCN2C1=O
6. C[C@H]1CC2C(=O)OC[C@H](NC(=O)[C@H](Cc3ccccc3)NC(=O)Nc3ccc(OC(F)(F)F)cc3)C(=O)N3CCCC3C(=O)N3CCCCC3C(=O)N[C@@H](C)C(=O)N2C1 (stereo partly shown)
7. CCc1ccc(NC(=O)N[C@@H](Cc2cc(F)cc(F)c2)C(=O)N[C@@H]2C(=O)N3CCCC3C(=O)N(C)[C@@H](C)C(=O)N[C@@H](C)C(=O)N3C[C@@H](C)CC3C(=O)O[C@H]2C)cc1 (stereo partly shown)
8. C[C@H]1C[C@H]2C(=O)O[C@@H](C)[C@H](NC(=O)[C@H](Cc3cc(F)cc(F)c3)NC(=O)Nc3ccc4c(c3)OCO4)C(=O)N3CCC[C@H]3C(=O)N3CCCC[C@H]3C(=O)N[C@@H](C)C(=O)N2C1

Response:
5.6
6.1
5.9
4.61
7.2
6.76
4
6

###

- measured_on: Sa-ClpP (Staphylococcus aureus, UniProt Q2G036)
- Construct: made in house; host or cells: E. coli BL21 (DE3)
- assay_comment: ClpP activation, EnzCheck Protease Assay with Bodipy-FL casein (second described method)
- Format: biochemical, S. aureus
- study_conditions: read-out: ClpP Activation EC50 (converted)
- Description: Alternatively, the assay was carried out using EnzCheck Protease Assay (Molecular Probes, Catalog #E6638). The assay was performed in black 384 well, flat bottom, low volume plates (Greiner Bio-One, Monroe, N.C., catalog #784076). […] Increase in fluorescent signal following activation of Sa-ClpP by test compounds and controls was measured over time period of 30 mins using filters with excitation at 485±15 nm and emission at 520±25 nm on a PHERAstar FS Multilabel reader (BMG, Cary, N.C.). […]
property_measured: EC50 (nM)
One number for each entry, in nM.

Worked examples, 4 compounds total:
compound | measured_on | endpoint_value
CCc1cccc(NC(=O)N[C@@H](Cc2ccccc2)C(=O)N[C@H]2COC(=O)[C@@H]3C[C@@H](C)CN3C(=O)[C@H](C)NC(=O)[C@@H]3CCCCN3C(=O)[C@@H]3CCCN3C2=O)c1 | Sa-ClpP (Staphylococcus aureus, UniProt Q2G036) | 900
Cc1ccc(NC(=O)N[C@@H](Cc2cc(F)cc(F)c2)C(=O)N[C@@H]2C(=O)N3CCCC3C(=O)N(C)[C@@H](C)C(=O)N[C@@H](C)C(=O)N3C[C@@H](C)CC3C(=O)O[C@H]2C)cc1 (some centres unmarked) | Sa-ClpP (Staphylococcus aureus, UniProt Q2G036) | 290
C[C@H]1C[C@H]2C(=O)O[C@@H](C)[C@H](NC(=O)[C@H](Cc3cc(F)cc(F)c3)NC(=O)Nc3ccc(C(F)(F)F)cc3)C(=O)N3CCC[C@H]3C(=O)N3CCCC[C@H]3C(=O)N[C@@H](C)C(=O)N2C1 | Sa-ClpP (Staphylococcus aureus, UniProt Q2G036) | 330
C[C@@H]1C[C@H]2C(=O)OC[C@H](NC(=O)[C@H](Cc3ccccc3)NC(=O)Nc3ccc(N(C)C)cc3)C(=O)N3CCC[C@H]3C(=O)N3CCCC[C@H]3C(=O)N[C@@H](C)C(=O)N2C1 | Sa-ClpP (Staphylococcus aureus, UniProt Q2G036) | 1500

Query: Check the records and state EC50 for Cc1ccc(NC(=O)N[C@@H](Cc2cc(F)cc(F)c2)C(=O)N[C@H]2COC(=O)C3CC(C)(C)CN3C(=O)[C@H](C)NC(=O)C3CCCCN3C(=O)C3CCCN3C2=O)cc1 (some centres unmarked)
Response: 2300
